Target: T1, human CD137-human Fc chimeric protein (Acro Biosystems cat no. 41B-H5258) (human, UniProt Q07011 24-186)
T1 construct: Bought protein; The Octet Protein G and Biacore experiments name no catalogue number; also called human CD137Fc recombinant protein; human CD137-Fc recombinant protein; not shown: human IgG1 Fc tag
Experimental Details: HTRF binding assay
Procedure: Binding to human CD137Fc recombinant protein (Acro Biosystems 41B-H5258), rhesus CD137Fc recombinant protein (Sino Biologicals cat no. 90847-K02H) and mouse CD137Fc protein (Acro Biosystems 41B-M5258) was measured using an HTRF Binding assay format. […] Time-resolved fluorescent emission at 620 nm and 665 nm was measured following excitation at 337 nm on the BMG PHERAstar plate reader. […]
Assay Readout: pEC50
For clarity, pEC50 is expressed as the negative log10 of concentration in mol/L.

Binder | pEC50
Humabody VH 1.1 (VHH, human single VH domain; also called single domain antibody 1.1) VH: EVQLVESGGGLVQPGGSLRLSCAASGFTFSSHWMTWFRQAPGKGLEWVAHIKEDGSEKYYEDSVEGRFTVSRDNAKNSVYLQMNSLRAEDTAVYYCARGGDGYSDSHFGVDVWGQGTTVTVSSHHHHHH | 9.59

Continue with the binder presented below.
Entry under test: Humabody VH 1.18 (VHH, human single VH domain) VH: EVQLVESGGGLVQPGGSLRLSCAASGFTFSTHWMNWARQAPGKELEWVANINQDGSEKYYVDSVEGRFTISRDNANNSLYLQMNSLRAEDTAVYYCARGGVGYGDSHFGMDVWGLGTTVTVSSHHHHHH . Its pEC50 was 9.35

Values were extracted from patent US20200362047A1.
